Assay: pH of solutions in distilled water
Format: physicochemical
Conditions: 6.4 g/liter in distilled water
Where a name gives a salt, the structure may show the parent alone.
readout: pH
Returns: the value as a bare number; no unit string appended.

Task: Supply recorded pH for CC(C(=O)c1ccc(N)cc1)N(C)C (stereo not drawn) here.
Output: 2.0

Task: Provide pH value for the following molecule: CC(NC1CC1)C(=O)c1ccc(N)cc1 (stereo not drawn)
Output: 3.0

Task: Look up and report measured pH for this entry: CC(C(=O)c1ccc(N)cc1)N1CCOCC1 (stereo not drawn) [CRL 41 237, dihydrochloride]
Output: 2.0

Task: Given the molecule CC(C(=O)c1ccc(N)cc1)N1CCCC1 (stereo not drawn) [CRL 41 222, dihydrochloride] , write its reported pH.
Output: 2.0

Task: For the molecule CC(C(=O)c1ccc(N)cc1)N1CCN(C)CC1 (stereo not drawn) , report pH.
Output: 2.0

Task: Provide only the value of recorded pH for CC(C(=O)c1ccc(N)cc1)N1CCSCC1 (stereo not drawn)
Output: 2.0
